tested on: NOMO1; test: cell viability relative to DMSO control; higher = less cytotoxic; conditions: RPMI 5 mM glucose + 10% dialyzed FBS; 48 h; 0.000781 µM

| Molecule | cell viability |
| --- | --- |
| O=C(c1ccccc1)c1ccc2n1CCC2C(=O)O (stereo unspecified) | 107% |
| CNCC[C@H](Oc1cccc2ccccc12)c1cccs1 | 105% |
| Nc1ncnc2c1ncn2[C@@H]1O[C@H](CO)C[C@H]1O | 103% |
| CC#CCn1c(N2CCC[C@@H](N)C2)nc2c1c(=O)n(Cc1nc(C)c3ccccc3n1)c(=O)n2C | 104% |
| Nc1ccc([S+](=O)([O-])Nc2ccnn2-c2ccccc2)cc1 | 81.4% |
| CC(C(=O)O)c1ccc2c(c1)CC(=O)c1ccccc1S2 (stereo unspecified) | 99.6% |
